Reported IC50 by item:
Molecular target: ACC1 from rat liver (Rattus norvegicus, UniProt P11497)
Construct: The livers (for ACC1 preparation) or skeletal muscle tissue (for ACC2 preparation) are removed; from tissue; host or cells: liver of male CD rats (fasted, then fed a high sucrose diet)
Assay: Direct inhibition of ACC1 activity (14C-bicarbonate incorporation)
Format: biochemical
Details: ACC1 from rat liver
Procedure: [1] Preparation of ACC1 and ACC2. Male CD rats weighing 150-200 g are fasted for 2 days and then fed a high sucrose diet (AIN-76A rodent diet; Cat # D10001, Research Diets Inc., New Brunswick, N.J.), for 3 days at which time they are sacrificed by CO2 asphyxiation. […] [2] […] The dried vials are then cooled, 0.5 ml of water and 5.5 ml of Ready Safe liquid scintillation fluid (Beckman Coulter Inc., Fullerton, Calif.) are added, and the radioactivity is determined using a liquid scintillation counter. […]
Where a name gives a salt, the structure may show the parent alone.
A number alone suffices; assume nM.

COC(=O)c1ccc2c(c1)C(=O)CC1(CCN(C(=O)c3cc(C)c4[nH]nc(C)c4c3)CC1)O2 :: 54.3
Cc1cc2c(cc1Cl)C(=O)CC1(CCN(C(=O)c3cccc4[nH]ncc34)CC1)O2 :: 375
CC(C)Oc1ccc2c(c1)C(=O)CC1(CCN(C(=O)c3cccc(-c4cc[nH]n4)c3)CC1)O2 :: 48.3
Cc1cc2c(cc1C)C(=O)CC1(CCN(C(=O)c3ccc4[nH]nnc4c3)CC1)O2 [Ex. L37] :: 151
CCc1cc(C(=O)N2CCC3(CC2)CC(=O)c2c(OC)cc(C)cc2O3)cc2cn[nH]c12 :: 29.5
Cc1cc2c(cc1C)C(=O)CC1(CCN(C(=O)c3cc(C)c4[nH]ncc4c3)CC1)O2 [Ex. A1] :: 23.5

IC50 of `Cc1cc2c(cc1Cl)C(=O)CC1(CCN(C(=O)c3cccc4[nH]cnc34)CC1)O2` on ACC1 from rat liver (Rattus norvegicus, UniProt P11497)?
2010

IC50 of Cc1cc2c(cc1Cl)C(=O)CC1(CCN(C(=O)c3ccc4[nH]ncc4c3)CC1)O2 [Ex. E2] on ACC1 from rat liver (Rattus norvegicus, UniProt P11497)?
108

IC50 of `Cc1cc2c(cc1C)C(=O)CC1(CCN(C(=O)c3ccc4nn(C)cc4c3)CC1)O2` on ACC1 from rat liver (Rattus norvegicus, UniProt P11497)?
353

IC50 of Cc1n[nH]c2cc(C(=O)N3CCC4(CC3)CC(=O)c3cc(C(=O)O)ccc3O4)ccc12 [Ex. F5, trifluoroacetic acid salt] on ACC1 from rat liver (Rattus norvegicus, UniProt P11497)?
586

IC50 of `O=C1CC2(CCN(C(=O)c3cccc4cn[nH]c34)CC2)Oc2ccccc21` on ACC1 from rat liver (Rattus norvegicus, UniProt P11497)?
3540

IC50 of `Cc1cc(C(=O)N2CCC3(CC2)CC(=O)c2cc(C(=O)N(C)C)ccc2O3)cc2cn[nH]c12` on ACC1 from rat liver (Rattus norvegicus, UniProt P11497)?
125

IC50 of `Cc1cc2c(cc1C)C(=O)CC1(CCN(C(=O)c3ccc4ccn(C)c4c3)CC1)O2` on ACC1 from rat liver (Rattus norvegicus, UniProt P11497)?
83.3

IC50 of `Cc1cc2c(cc1C)C(=O)CC1(CCN(C(=O)c3ccc4c(c3)nc(C)n4C)CC1)O2` on ACC1 from rat liver (Rattus norvegicus, UniProt P11497)?
3150

IC50 of `COc1ccc2c(c1F)C(=O)CC1(CCN(C(=O)c3cc(C)c4[nH]ncc4c3)CC1)O2` on ACC1 from rat liver (Rattus norvegicus, UniProt P11497)?
37.4
